Exercise: state measured Total impurities after storage for each of the compounds provided.
assay: Stability of stabilized vs. non-stabilized lansoprazole on storage (HPLC impurities and color); type: physicochemical; conditions: 1 month, 40 °C, 75% humidity; lansoprazole of Example 2
Give bare numbers, in %.

compound: Cc1c(OCC(F)(F)F)ccnc1C[S+]([O-])c1nc2ccccc2[nH]1 (centres unmarked) [Lansoprazole not stabilized with ammonia]
units-label: %
Total impurities after storage: 0.15

Please report the recorded Total impurities after storage for Cc1c(OCC(F)(F)F)ccnc1C[S+]([O-])c1nc2ccccc2[nH]1 (centres unmarked) [Lansoprazole stabilized with ammonia] . 0.05

The measurements presented in this section are drawn from patent US20050020638A1.
